Reported IC50 by item:
# study_system: CCR2 (Homo sapiens, UniProt P41597)
# Construct: chemokine expressing cells (such as THP-1 cells for CCR2 assay or MOLT-4 cells for CCR9 assay); host or cells: THP-1 cells
# Sequence (P41597 whole entry): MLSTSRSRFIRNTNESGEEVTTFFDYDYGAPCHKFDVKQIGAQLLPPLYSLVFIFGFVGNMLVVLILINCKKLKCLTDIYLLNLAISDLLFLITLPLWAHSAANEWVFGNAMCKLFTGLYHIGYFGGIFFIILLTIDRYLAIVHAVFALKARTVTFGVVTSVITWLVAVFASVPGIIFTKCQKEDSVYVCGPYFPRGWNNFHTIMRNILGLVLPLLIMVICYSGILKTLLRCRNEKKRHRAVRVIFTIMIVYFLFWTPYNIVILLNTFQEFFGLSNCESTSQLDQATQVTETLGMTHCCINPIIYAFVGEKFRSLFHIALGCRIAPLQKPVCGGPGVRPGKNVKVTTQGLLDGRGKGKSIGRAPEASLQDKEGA
# assay_text: chemotaxis (conventional migration), ligand binding or calcium mobilization (calcium flux) assays
# Type: cell-based
# assay_setup: Table 2: activity in one of the chemotaxis

Examples with answers:
CN(C(=O)c1ccc(Cl)cc1NS(=O)(=O)c1cccc(C(F)(F)F)c1)c1ccccn1 ... < 500 nM
O=C(c1ccccc1)c1ccc(Cl)cc1NS(=O)(=O)c1ccc(Cl)cc1 ... < 500 nM
O=C(c1ccc(Cl)cc1NS(=O)(=O)c1ccc(Cl)c([N+](=O)[O-])c1)N1CCOCC1 ... < 500 nM
O=C(c1ccccc1)c1ccc(Cl)cc1NS(=O)(=O)c1cccc(C(F)(F)F)c1 ... < 500 nM

Now for the compound whose IC50 we want.
**Query** Please give the documented IC50 of "O=S(=O)(Nc1cc(Cl)ccc1Oc1ccccc1)c1ccc(Cl)c(C(F)(F)F)c1"
**Result** < 500 nM

* * *

Reported pIC50 by item:
# study_system: CCR2 (Homo sapiens, UniProt P41597)
# Construct: chemokine expressing cells (such as THP-1 cells for CCR2 assay or MOLT-4 cells for CCR9 assay); host or cells: THP-1 cells
# assay_text: chemotaxis (conventional migration), ligand binding or calcium mobilization (calcium flux) assays
# Format: cell-based
# assay_setup: Table 2: activity in one of the chemotaxis
pIC50: −log10 of the molar value.

O=C(c1ccccc1)c1ccc(Br)cc1NS(=O)(=O)c1ccc(Cl)c(Cl)c1 [drawing 301] ... > 6.30

**Query** Please give the documented pIC50 of "O=C(c1ccc(Cl)cc1NS(=O)(=O)c1ccc(Cl)c(C(F)(F)F)c1)N1CCOCC1"
**Result** > 6.30

**Query** Please give the documented pIC50 of O=S(=O)(Nc1ccc(Cl)cc1-c1nnn[nH]1)c1ccc(Cl)c(Cl)c1 [drawing 304]
**Result** > 6.30

**Query** Please give the documented pIC50 of "O=C(c1ccc(Cl)cc1NS(=O)(=O)c1ccc(Cl)c(C(F)(F)F)c1)N1CCCC1"
**Result** > 6.30

**Query** Please give the documented pIC50 of O=C(c1ccccc1)c1cc(Cl)ccc1NS(=O)(=O)c1ccc(Cl)c(Cl)c1 [drawing 296]
**Result** > 6.30

**Query** Please give the documented pIC50 of "Cc1nnc(-c2cc(Cl)ccc2NS(=O)(=O)c2ccc(C(C)(C)C)cc2)c2ccccc12"
**Result** > 6.30

**Query** Please give the documented pIC50 of O=S(=O)(Nc1cc(Cl)ccc1C(O)c1ccccc1)c1ccc(Cl)c(C(F)(F)F)c1 (stereo not drawn)
**Result** > 6.30

**Query** Please give the documented pIC50 of "Cn1nc(-c2cc(Cl)ccc2NS(=O)(=O)c2ccc(Cl)c(C(F)(F)F)c2)c2ccccc21"
**Result** > 6.30

**Query** Please give the documented pIC50 of CN(C)C(=O)C1CCCN1C(=O)c1ccc(Cl)cc1NS(=O)(=O)c1ccc(Cl)c(C(F)(F)F)c1 (stereo not drawn)
**Result** > 6.30
